Entry source: PubChem BioAssay (NCI)

Test system: ACHN renal
Test: NCI tumour cell line growth inhibition, 48 h
assay.metric: TGI (µM)

compound: CSc1nc(SC)c2c(C)cn(Cc3ccccc3)c2n1
modifier.sign: >
experimental.result: 100
//
compound: CCOC(=O)c1ccc(N(C)Cc2cnc3nc(N)nc(N)c3n2)cc1
modifier.sign: =
experimental.result: 20.2
//
compound: Brc1ccc(N=C/C=C(\Nc2ccc(Br)cc2)C23CC4CC(CC(C4)C2)C3)cc1
modifier.sign: =
experimental.result: 23.2
//
compound: Cc1ccc2[nH]c3c(C)c4cc[n+](C)cc4c(C)c3c2c1
modifier.sign: =
experimental.result: 57.9
//
compound: Cc1cc(C)c2c(=O)cc(-c3ccc(F)cc3)[nH]c2n1
modifier.sign: >
experimental.result: 100
//
compound: Cc1ccccc1C(C#N)/C(=N/NC(N)=S)C(=O)Nc1c(C)cccc1C (stereo unspecified)
modifier.sign: >
experimental.result: 100

* * *

Tested on: MDA-MB-231 breast
Test: NCI tumour cell line growth inhibition, 48 h; in the data active = GI50 below about 0.43 µM; inactive = the rest
Outcome codes: label 1 (active), label 0 (inactive)

molecule: CN(CCNc1ccc(C(=N)N)cc1)c1ccc(C(=N)N)cc1
discrete.label: label 0
--
molecule: O=C(NC(=S)Nc1ccc(-c2nc3ccccc3[nH]2)cc1)c1ccc2ccccc2c1
discrete.label: label 0
--
molecule: CCOC(=O)c1c2c(n(Cc3ccccc3)c1C)-c1nc[nH]c1C(=O)C2=O
discrete.label: label 0
--
molecule: Nc1n[nH]c2ccc([C@H]3[C@@H]4C5CCC(C5)[C@@H]4c4c(ccc5[nH]ncc45)N3S(=O)(=O)C3CC3)cc12 (stereo not given in full)
discrete.label: label 1
--
molecule: COc1cc2cc(Oc3ccc(NC(=O)Nc4ccc(F)c(C(F)(F)F)c4)cc3)c(C)nc2cc1OCCN1CCOCC1
discrete.label: label 0

* * *

TGI values for the compounds below.
Tested on: HOP-62 NSCLC
Experiment: NCI tumour cell line growth inhibition, 48 h

compound: CC12OC(C(=O)C13CC3)C1C(=O)c3cccc(O)c3C(=O)C12 (stereo not given)
TGI: 19.7 µM
--
compound: Oc1c(CCl)cc(Cl)cc1Cc1cc(Cl)cc(Cc2cc(Cl)cc(CCl)c2O)c1O
TGI: 26.5 µM
--
compound: O=c1cc(CN2CCCCC2)[nH]c2c1ccc1nc(CN3CCCCC3)cc(=O)n12
TGI: > 100 µM
--
compound: O=C(Nn1c(-c2ccccc2)nc2ccccc2c1=O)c1ccc([N+](=O)[O-])cc1
TGI: > 100 µM
--
compound: COC(=O)c1oc([N+](=O)[O-])c(-c2ccccc2)c1-c1ccccc1
TGI: > 100 µM

* * *

GI50 values for the compounds below.
Test system: U251 CNS

compound.string: Cc1cccc2c1NC(=O)[C@@H](NC(=O)[C@H](CCC(F)(F)F)[C@H](CCC(F)(F)F)C(N)=O)N=C2c1cccc(F)c1
GI50: 20.2 µM
//
compound.string: CN1CCN(C(=O)OCc2nc3c(N4CCOCC4)nc(-c4ccccc4)nc3n2C)CC1
GI50: 1.52 µM
//
compound.string: CC(=O)N[C@@H](Cc1ccc(OP(=O)(O)O)cc1)C(=O)N[C@H]1CCC(=O)N2CCC[C@@H](C(=O)NCc3cccc4ccccc34)N2C1=O
GI50: > 25 µM
//
compound.string: Clc1ccc(Nc2ncnc3ccccc23)cc1
GI50: 72.5 µM
//
compound.string: O=C(NCCCNc1cc(-c2cn(-c3ccccc3)nc2-c2cccc(O)c2)ccn1)c1ccc(F)cc1
GI50: 2.96 µM
//
compound.string: Cc1cc(C)c2c(=O)cc(-c3ccc(F)cc3)[nH]c2n1
GI50: 95.1 µM
//
compound.string: NS(=O)(=O)c1ccc(N=Nc2c(O)[nH]c3cccc(CCc4ccncc4)c23)cc1
GI50: > 25 µM
//
compound.string: NNC(=S)N/N=C/c1ccccn1
GI50: 1.99 µM
//
compound.string: CCN1C2=C(SC(=S)C1=C1SC(C(=O)c3ccccc3)=C(C(=O)c3ccccc3)S1)SC(=Nc1ccccc1)C2=O
GI50: 3.39 µM
//
compound.string: Nc1nc(N)c2cc(Sc3ccc(Cl)cc3)ccc2n1
GI50: 0.526 µM
//
compound.string: CCOC(=O)Cc1csc(Nc2nc(O)c(C3=c4ccccc4=NC3=O)s2)n1
GI50: 19.2 µM

* * *

Test system: MDA-MB-435
Outcome codes: active, inactive

compound: CCN1C2=C(SC(=S)C1=C1SC(C(=O)c3ccccc3)=C(C(=O)c3ccccc3)S1)SC(=Nc1ccccc1)C2=O
discrete.label: inactive
//
compound: CN1CCN(C(=O)OCc2nc3c(N4CCOCC4)nc(-c4ccccc4)nc3n2C)CC1
discrete.label: inactive
//
compound: CSc1nc(SC)c2cnn(-c3ccnc4cc(Cl)ccc34)c2n1
discrete.label: inactive
//
compound: CO[C@@H]1[C@H](N(C)C(=O)c2ccccc2)C[C@@H]2O[C@]1(C)n1c3ccccc3c3c4c(c5c6ccccc6n2c5c31)C(=O)NC4=O
discrete.label: inactive
//
compound: CN(CCNc1ccc(C(=N)N)cc1)c1ccc(C(=N)N)cc1
discrete.label: inactive
//
compound: COc1ccc(/C=C/C(=O)c2ccc(B(O)O)cc2)cc1O
discrete.label: inactive
//
compound: Nc1n[nH]c2ccc([C@H]3[C@@H]4C5CCC(C5)[C@@H]4c4c(ccc5[nH]ncc45)N3S(=O)(=O)C3CC3)cc12 (stereo partly drawn)
discrete.label: active
//
compound: N#C/C(=C\c1ccc([N+](=O)[O-])cc1)n1nnc2cc(F)c(F)cc21
discrete.label: inactive
//
compound: COc1ccc2c(c1)OC(N)=C(C#N)C2c1ccc(F)c(F)c1 (stereo not drawn)
discrete.label: active
//
compound: CC(C)[C@]12O[C@H]1[C@@H]1O[C@]13[C@]1(O[C@H]1C[C@H]1C4=C(CC[C@@]13C)C(=O)OC4)[C@@H]2OC(=O)OC(C)(C)C
discrete.label: active
//
compound: COc1cc2cc(Oc3ccc(NC(=O)Nc4ccc(F)c(C(F)(F)F)c4)cc3)c(C)nc2cc1OCCN1CCOCC1
discrete.label: inactive
//
compound: CCOC(=O)c1c2c(n(Cc3ccccc3)c1C)-c1nc[nH]c1C(=O)C2=O
discrete.label: inactive
//
compound: COc1cc2c3c(n(CCCNC(C)(C)CO)c(=O)c2cc1OC)-c1cc2c(cc1C3=O)OCO2
discrete.label: inactive
//
compound: CCOC(=O)Nc1ccc2c3c(cccc13)-c1ccccc1-2
discrete.label: inactive
//
compound: Nc1cc2c(c3ccccc13)C(CCl)CN2C(=O)c1cc2cc(NC(=O)c3cc4ccccc4o3)ccc2[nH]1 (stereo not drawn)
discrete.label: active
//
compound: O=C1/C(=C\c2ccc(Cl)cc2)CN(C(=O)c2ccccc2)C/C1=C\c1ccc(Cl)cc1
discrete.label: inactive
//
compound: CC(=O)NS(=O)(=O)c1ccc(-n2nc(-c3ccccc3)cc2-c2cc(O)ccc2O)cc1
discrete.label: inactive
//
compound: O=C(NCCCNc1cc(-c2cn(-c3ccccc3)nc2-c2cccc(O)c2)ccn1)c1ccc(F)cc1
discrete.label: inactive

* * *

TGI values for the compounds below.
Test system: COLO 205 colon
Assay: NCI tumour cell line growth inhibition, 48 h

compound: CCCCCCCCOP(=O)(O)OP(=O)(O)OCC1OC(n2ccc(N)nc2=O)C(O)C1O (stereo not drawn)
TGI: > 100 µM

compound: COC(=O)CCC(=O)C(CC(=O)OC)C(=O)CCC(=O)NCCc1ccccc1 (stereo not drawn)
TGI: > 100 µM

compound: NS(=O)(=O)c1ccc(N=Nc2c(O)[nH]c3cccc(CCc4ccncc4)c23)cc1
TGI: > 25 µM

* * *

TGI values for the compounds below.
Tested on: SW-620 colon
Assay: NCI tumour cell line growth inhibition, 48 h

compound: Cc1cn2c(/C=N/NC3=NCCN3)c(-c3ccc(Cl)c([N+](=O)[O-])c3)nc2s1
target.system: SW-620 colon
TGI: 2.46 µM

compound: COCN1C(=O)[C@@H]2CCCN2C(=O)c2ccc(Cl)cc21
target.system: SW-620 colon
TGI: > 100 µM

compound: CC1(C)OP(=O)(c2ccccc2)C=C1Br (stereo not drawn)
target.system: SW-620 colon
TGI: > 100 µM

compound: CC1=CC=C2C(C)(C)CC[C@@H]3OC(=O)[C@H]1[C@]23C
target.system: SW-620 colon
TGI: > 100 µM

compound: CN1CCC2(CC1)C(=O)N(NC(N)=O)C(=O)C2c1ccccc1 (stereo not drawn)
target.system: SW-620 colon
TGI: > 100 µM

compound: O=C(c1ccccc1)c1ccc(N2C(=O)/C(=C/c3cccc([N+](=O)[O-])c3)N=C2c2ccccc2)c(N2C(=O)/C(=C/c3cccc([N+](=O)[O-])c3)N=C2c2ccccc2)c1
target.system: SW-620 colon
TGI: > 100 µM

compound: CC1(C)CCCCC1/C=C/C(CC(O)(C(F)(F)F)C(F)(F)F)=N\Nc1ccc([N+](=O)[O-])cc1[N+](=O)[O-] (stereo not drawn)
target.system: SW-620 colon
TGI: 11.4 µM

compound: OCC(O)COc1ccc(F)cc1 (stereo not drawn)
target.system: SW-620 colon
TGI: > 100 µM

compound: O=C1/C(=C\c2ccc(Cl)cc2)CN(C(=O)c2ccccc2)C/C1=C\c1ccc(Cl)cc1
target.system: SW-620 colon
TGI: 5.01 µM

compound: COc1c(O)cc2c(c1CC=C(C)C)OC(=O)c1c(cc(O)c(CC=C(C)C)c1O)O2
target.system: SW-620 colon
TGI: 7.05 µM

compound: CC(=O)OC12c3ccccc3C(c3ccccc31)C1C(=O)N(c3ccccc3O)C(=O)C12 (stereo not drawn)
target.system: SW-620 colon
TGI: > 100 µM

compound: O=C(NC(=S)Nc1ccc(-c2nc3ccccc3[nH]2)cc1)c1ccc2ccccc2c1
target.system: SW-620 colon
TGI: > 100 µM

compound: CC12CCC3C(CCC4(O)C=CCCC34C=O)C1(O)CC(O)C2c1ccc(=O)oc1 (stereo not drawn)
target.system: SW-620 colon
TGI: 0.222 µM
